test system: Staphylococcus aureus ATCC 29213; format: cell-based
Where a SMILES comes first, the peptide text is derived from it. Bridges are numbered along the chain shown (N, C = ends). [ ]: non-standard residue; d: D form. d(aIle) = CC[C@H](C)[C@@H](N)C(=O)O; dNMeF = CN[C@H](Cc1ccccc1)C(=O)O
Recorded MIC, Staphylococcus aureus ATCC 29213 by entry
State just the number; it will be interpreted in µg/mL.

| compound | parameter_measured | endpoint_value |
| --- | --- | --- |
| CC[C@H](C)[C@H](NC(=O)[C@@H](Cc1ccccc1)NC)C(=O)N[C@@H](CO)C(=O)N[C@H](CCC(N)=O)C(=O)N[C@@H](C(=O)N[C@H](C(=O)N[C@@H](CO)C(=O)N[C@H]1C(=O)N[C@@H](C)C(=O)N[C@@H](CCCCN)C(=O)N[C@@H]([C@@H](C)CC)C(=O)O[C@H]1C)[C@@H](C)CC)[C@@H](C)CC | MIC, Staphylococcus aureus ATCC 29213 | 0.5 |
| CC[C@H](C)[C@H](NC(=O)[C@@H](Cc1ccccc1)NC)C(=O)N[C@@H](CO)C(=O)N[C@H](CCC(N)=O)C(=O)N[C@@H](C(=O)N[C@H](C(=O)N[C@@H](CO)C(=O)N[C@H]1C(=O)N[C@@H](C)C(=O)N[C@@H](CCCCN)C(=O)N[C@@H](C)C(=O)O[C@H]1C)[C@@H](C)CC)[C@@H](C)CC [Lys10,Ala11-teixobactin] (H-[dNMeF]IS[dQ][d(aIle)]IS[dT]AKA; ester 8-C) | MIC, Staphylococcus aureus ATCC 29213 | 4 |

With those in mind, consider the next compound.
*Q* // returns reported MIC, Staphylococcus aureus ATCC 29213 for input CC[C@H](C)[C@H](NC(=O)[C@@H](Cc1ccccc1)NC)C(=O)N[C@@H](CO)C(=O)N[C@H](C)C(=O)N[C@@H](C(=O)N[C@H](C(=O)N[C@@H](CO)C(=O)N[C@H]1C(=O)N[C@@H](C)C(=O)N[C@@H](CCCCN)C(=O)N[C@@H]([C@@H](C)CC)C(=O)O[C@H]1C)[C@@H](C)CC)[C@@H](C)CC [D-Ala4,Lys10-teixobactin] (H-[dNMeF]IS[dA][d(aIle)]IS[dT]AKI; ester 8-C)
*A* 1

----------
test system: Enterococcus durans ATCC 6056; assay type: cell-based
Where a SMILES comes first, the peptide text is derived from it. Bridges are numbered along the chain shown (N, C = ends). [ ]: non-standard residue; d: D form. d(aIle) = CC[C@H](C)[C@@H](N)C(=O)O; dNMeF = CN[C@H](Cc1ccccc1)C(=O)O
Here the recorded MIC, Enterococcus durans ATCC 6056 is given for each entry.
Just the number please, in µg/mL, no unit attached.

| molecule | units_symbol | endpoint_value |
| --- | --- | --- |
| CC[C@H](C)[C@H](NC(=O)[C@@H](Cc1ccccc1)NC)C(=O)N[C@@H](C)C(=O)N[C@H](CCC(N)=O)C(=O)N[C@@H](C(=O)N[C@H](C(=O)N[C@@H](CO)C(=O)N[C@H]1C(=O)N[C@@H](C)C(=O)N[C@@H](CCCCN)C(=O)N[C@@H]([C@@H](C)CC)C(=O)O[C@H]1C)[C@@H](C)CC)[C@@H](C)CC [Ala3,Lys10-teixobactin] (H-[dNMeF]IA[dQ][d(aIle)]IS[dT]AKI; ester 8-C) | µg/mL | 4 |

Next molecule, please.
*Q* Look up MIC, Enterococcus durans ATCC 6056 with Enterococcus durans ATCC 6056 for this molecule: CC[C@H](C)[C@H](NC(=O)[C@@H](Cc1ccccc1)NC)C(=O)N[C@@H](CO)C(=O)N[C@H](CCC(N)=O)C(=O)N[C@@H](C(=O)N[C@H](C(=O)N[C@@H](CO)C(=O)N[C@H]1C(=O)N[C@@H](C)C(=O)N[C@@H](CCCCN)C(=O)N[C@@H]([C@@H](C)CC)C(=O)O[C@H]1C)[C@@H](C)CC)[C@@H](C)CC [Lys10-teixobactin]
*A* 2

----------
format: physicochemical; settings: pH 7.4
Where a SMILES comes first, the peptide text is derived from it. Bridges are numbered along the chain shown (N, C = ends). [ ]: non-standard residue; d: D form. d(aIle) = CC[C@H](C)[C@@H](N)C(=O)O; dNMeF = CN[C@H](Cc1ccccc1)C(=O)O
parameter_measured: solubility in PBS buffer

| compound | endpoint_value |
| --- | --- |
| CC[C@H](C)[C@H](NC(=O)[C@@H](Cc1ccccc1)NC)C(=O)N[C@@H](CO)C(=O)N[C@H](CCC(N)=O)C(=O)N[C@@H](C(=O)N[C@H](C(=O)N[C@@H](C)C(=O)N[C@H]1C(=O)N[C@@H](C)C(=O)N[C@@H](CCCCN)C(=O)N[C@@H]([C@@H](C)CC)C(=O)O[C@H]1C)[C@@H](C)CC)[C@@H](C)CC [Ala7,Lys10-teixobactin] (H-[dNMeF]IS[dQ][d(aIle)]IA[dT]AKI; ester 8-C) | good |
| CC[C@H](C)[C@H](NC(=O)[C@@H](C)NC)C(=O)N[C@@H](CO)C(=O)N[C@H](CCC(N)=O)C(=O)N[C@@H](C(=O)N[C@H](C(=O)N[C@@H](CO)C(=O)N[C@H]1C(=O)N[C@@H](C)C(=O)N[C@@H](CCCCN)C(=O)N[C@@H]([C@@H](C)CC)C(=O)O[C@H]1C)[C@@H](C)CC)[C@@H](C)CC [N-Me-D-Ala1,Lys10-teixobactin] | good |

----------
tested on: Enterococcus durans ATCC 6056; format: cell-based
Where a SMILES comes first, the peptide text is derived from it. Bridges are numbered along the chain shown (N, C = ends). [ ]: non-standard residue; d: D form. d(aIle) = CC[C@H](C)[C@@H](N)C(=O)O; dNMeF = CN[C@H](Cc1ccccc1)C(=O)O
parameter_measured: MIC, Enterococcus durans ATCC 6056

Completed entries (count: 3):
| molecule | experimental_target | MIC, Enterococcus durans ATCC 6056 |
| --- | --- | --- |
| CC[C@H](C)[C@H](NC(=O)[C@@H](Cc1ccccc1)NC)C(=O)N[C@@H](CO)C(=O)N[C@H](CCC(N)=O)C(=O)N[C@@H](C(=O)N[C@@H](C)C(=O)N[C@@H](CO)C(=O)N[C@H]1C(=O)N[C@@H](C)C(=O)N[C@@H](CCCCN)C(=O)N[C@@H]([C@@H](C)CC)C(=O)O[C@H]1C)[C@@H](C)CC [Ala6,Lys10-teixobactin] (H-[dNMeF]IS[dQ][d(aIle)]AS[dT]AKI; ester 8-C) | Enterococcus durans ATCC 6056 | >32 µg/mL |
| CC[C@H](C)[C@H](NC(=O)[C@H](NC(=O)[C@@H](CCC(N)=O)NC(=O)[C@H](CO)NC(=O)[C@H](C)NC(=O)[C@@H](Cc1ccccc1)NC)[C@@H](C)CC)C(=O)N[C@@H](CO)C(=O)N[C@H]1C(=O)N[C@@H](C)C(=O)N[C@@H](CCCCN)C(=O)N[C@@H]([C@@H](C)CC)C(=O)O[C@H]1C [Ala2,Lys10-teixobactin] (H-[dNMeF]AS[dQ][d(aIle)]IS[dT]AKI; ester 8-C) | Enterococcus durans ATCC 6056 | >32 µg/mL |
| CC[C@H](C)[C@H](NC(=O)[C@@H](Cc1ccccc1)NC)C(=O)N[C@@H](CO)C(=O)N[C@H](CCC(N)=O)C(=O)N[C@@H](C(=O)N[C@H](C(=O)N[C@@H](CO)C(=O)N[C@H]1C(=O)N[C@@H](C)C(=O)N[C@@H](CCCCN)C(=O)N[C@@H](C)C(=O)O[C@H]1C)[C@@H](C)CC)[C@@H](C)CC [Lys10,Ala11-teixobactin] (H-[dNMeF]IS[dQ][d(aIle)]IS[dT]AKA; ester 8-C) | Enterococcus durans ATCC 6056 | >32 µg/mL |

*Q* Short answer please: MIC, Enterococcus durans ATCC 6056, Enterococcus durans ATCC 6056, entry CC[C@H](C)[C@H](NC(=O)[C@@H](Cc1ccccc1)NC)C(=O)N[C@@H](CO)C(=O)N[C@H](CCC(N)=O)C(=O)N[C@@H](C(=O)N[C@H](C(=O)N[C@@H](CO)C(=O)N[C@H]1C(=O)N[C@@H](C)C(=O)N[C@@H](C)C(=O)N[C@@H]([C@@H](C)CC)C(=O)O[C@H]1C)[C@@H](C)CC)[C@@H](C)CC [Ala10-teixobactin]
*A* 8 µg/mL

*Q* Field: MIC, Enterococcus durans ATCC 6056 (Enterococcus durans ATCC 6056). Entry: CC[C@H](C)[C@H](NC(=O)[C@@H](C)NC(=O)[C@@H](CCC(N)=O)NC(=O)[C@H](CO)NC(=O)[C@@H](NC(=O)[C@@H](Cc1ccccc1)NC)[C@@H](C)CC)C(=O)N[C@@H](CO)C(=O)N[C@H]1C(=O)N[C@@H](C)C(=O)N[C@@H](CCCCN)C(=O)N[C@@H]([C@@H](C)CC)C(=O)O[C@H]1C [D-Ala5,Lys10-teixobactin] (HELM PEPTIDE1{[CN[C@H](Cc1ccccc1)C(=O)[*:2]].I.S.[dQ].[dA].I.S.[C[C@H](O[*:3])[C@@H](N[*:1])C(=O)[*:2]].A.K.I}$PEPTIDE1,PEPTIDE1,8:R3-11:R2$$$V2.0)
*A* >32 µg/mL
